These entries and their values trace back to the Human Domainome abundance scans (Beltran et al. 2025).

B1: Tyrosine-protein kinase BTK, residues 215 to 273; numbered along this chain, Q06187 (parent)
chain: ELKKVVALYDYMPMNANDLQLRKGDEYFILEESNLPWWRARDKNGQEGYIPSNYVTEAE

variants of: B1; assay: abundance fitness (aPCA) (normalised: wild type 0, dead -1); higher = more abundant; growth selection in yeast, the domain comes from the species named; conditions: Homo sapiens
Endpoint label: abundance fitness
Lab note: jot the number down without any unit.

See these solved cases before continuing.
Variant identifier	Endpoint label	Value observed
Q20T	abundance fitness	-0.043
A40Q	abundance fitness	-0.758
Q20D	abundance fitness	-0.168
A40P	abundance fitness	-1.16
G24L	abundance fitness	-0.382
R41D	abundance fitness	-1.08

Ask: // lookup abundance fitness for "D42R"
Reply: -0.673

Ask: // lookup abundance fitness for "E57K"
Reply: -0.047

Ask: // lookup abundance fitness for "A40H"
Reply: -0.674
